Data provenance is ChEMBL document CHEMBL4261512.

# test-target: Bromodomain-containing protein 4 (Homo sapiens, UniProt O60885)
# run-description: Inhibition of SGRG-K(Ac)-GG-K(Ac)-GLGK(Ac)-GGA-K(Ac)-RHRKVGG-K(Biotin) binding to N-terminal 6xHis-tagged human BRD4 bromodomain 1 expressed in Escherichia coli BL21 (DE3) at 50 uM preincubated for 10 mins followed by peptide addition and measured after 10 mins by AlphaScreen assay relative to control
Listed compounds paired with reported inhibition
Give the quantity in %, number only.

| compound | test-target | inhibition (%) |
| --- | --- | --- |
| COc1cc(C(=O)Nc2nnc(C)s2)cc(OC)c1OC | Bromodomain-containing protein 4 (Homo sapiens, UniProt O60885) | 90 |
| COc1cc(C(=O)NCC2CCCO2)cc(OC)c1OC (configuration not stated) | Bromodomain-containing protein 4 (Homo sapiens, UniProt O60885) | 94 |
| CCc1nnc(NC(=O)c2cc(OC)c(OC)c(OC)c2)s1 | Bromodomain-containing protein 4 (Homo sapiens, UniProt O60885) | 90 |
| CCC(CO)NC(=O)c1cc(OC)c(OC)c(OC)c1 (configuration not stated) | Bromodomain-containing protein 4 (Homo sapiens, UniProt O60885) | 94 |
| COc1cc(C(=O)NC2CCCC2)cc(OC)c1OC | Bromodomain-containing protein 4 (Homo sapiens, UniProt O60885) | 90 |
| COc1cc(C(=O)NCCCn2ccnc2)cc(OC)c1OC | Bromodomain-containing protein 4 (Homo sapiens, UniProt O60885) | 90 |

Now for another entry.
So the reported inhibition for COc1cc(C(=O)Nc2nc(C)cs2)cc(OC)c1OC , on Bromodomain-containing protein 4 (Homo sapiens, UniProt O60885), turned out to be 96
